- Target: TNKS1 (Homo sapiens)
- Construct: GST-tagged Tnks-1 (1023-1327 aa, prepared in-house); made in house
- Test Summary: TNKS1 activity ELISA (autoparsylation assay)
- Format: biochemical
- Condition Notes: GST-tagged Tnks-1; read-out: IC50 [M] TNKS1 ELISA
Parameter Measured: IC50
Answer format: number, then unit.

Compound: COc1cccc(C(=O)C2CCN(C(=O)CCCc3nc4ccccc4c(=O)[nH]3)CC2)c1 [Compound A9]
Parameter Measured: IC50
Reading: 1.9e-10 M

Compound: COc1ccc(C(=O)C2CCN(C(=O)CCCc3nc4c(C)cc(F)cc4c(=O)[nH]3)CC2)cc1C [Compound A15]
Parameter Measured: IC50
Reading: 8.8e-11 M

Compound: N#Cc1cc(C2CCN(C(=O)CCCc3nc4c(F)cccc4c(=O)[nH]3)CC2)cnc1N [Compound A34]
Parameter Measured: IC50
Reading: 3.3e-09 M

Please look at the following compound next.
I would be grateful if you could share the reported IC50 for O=C(c1ccc(-c2cnn(CCN3CCCC3)c2)cc1)C1CCN(C(=O)CCCc2nc3ccccc3c(=O)[nH]2)CC1 [Compound A12] .
2.5e-10 M

###

Catalogue of IC50 readings, one per entry.
- Target: PARP-1 (Homo sapiens)
- Construct: purchased Enzo Life Sciences GmbH, Lörrach, Germany
- Sequence (P09874 whole entry): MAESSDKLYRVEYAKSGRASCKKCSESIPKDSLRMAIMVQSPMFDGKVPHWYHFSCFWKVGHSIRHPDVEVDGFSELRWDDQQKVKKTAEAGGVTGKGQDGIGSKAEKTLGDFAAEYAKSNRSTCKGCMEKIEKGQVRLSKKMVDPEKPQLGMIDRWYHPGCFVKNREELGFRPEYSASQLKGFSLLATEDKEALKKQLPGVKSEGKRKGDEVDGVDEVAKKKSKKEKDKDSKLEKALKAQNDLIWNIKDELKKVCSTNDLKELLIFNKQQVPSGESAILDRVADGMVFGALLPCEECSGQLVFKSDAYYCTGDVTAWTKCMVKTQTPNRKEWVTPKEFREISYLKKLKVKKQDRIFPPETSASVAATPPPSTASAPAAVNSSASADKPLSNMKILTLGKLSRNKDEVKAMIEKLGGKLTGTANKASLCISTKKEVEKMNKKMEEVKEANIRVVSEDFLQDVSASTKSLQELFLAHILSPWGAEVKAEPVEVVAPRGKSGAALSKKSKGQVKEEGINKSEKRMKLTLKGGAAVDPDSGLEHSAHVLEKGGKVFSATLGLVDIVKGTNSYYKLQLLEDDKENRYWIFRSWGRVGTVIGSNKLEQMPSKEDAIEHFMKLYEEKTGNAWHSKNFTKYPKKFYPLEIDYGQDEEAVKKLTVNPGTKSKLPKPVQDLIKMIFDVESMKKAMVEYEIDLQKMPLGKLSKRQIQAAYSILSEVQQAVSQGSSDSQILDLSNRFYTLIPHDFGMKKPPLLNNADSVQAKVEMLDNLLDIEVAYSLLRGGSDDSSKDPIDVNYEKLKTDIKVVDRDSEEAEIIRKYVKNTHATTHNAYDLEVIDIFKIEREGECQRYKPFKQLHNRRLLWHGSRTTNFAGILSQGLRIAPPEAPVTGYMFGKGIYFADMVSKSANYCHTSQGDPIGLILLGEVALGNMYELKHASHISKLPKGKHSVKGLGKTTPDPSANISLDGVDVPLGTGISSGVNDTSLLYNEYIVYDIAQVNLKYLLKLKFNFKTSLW
- Test Summary: PARP-1 autoparsylation assay (HTRF)
- Format: biochemical
- Condition Notes: His-tagged Parp-1, autoparsylation
Answer format: number, then unit.

Compound Structure: COc1ccc(C(=O)C2CCN(C(=O)CCCc3nc4c(F)cc(F)cc4c(=O)[nH]3)CC2)cc1
IC50: 780 nM
//
Compound Structure: COc1ccc(C(=O)C2CCN(C(=O)CCCc3nc4c(F)cc(F)cc4c(=O)[nH]3)CC2)cc1C
IC50: 1000 nM
//
Compound Structure: COc1ccc(C(=O)C2CCN(C(=O)CCCc3nc4ccc(F)cc4c(=O)[nH]3)CC2)cc1F
IC50: 960 nM

I would be grateful if you could share the reported IC50 for "O=C(c1ccc(F)cc1)C1CCN(C(=O)CCCc2nc3c(F)cccc3c(=O)[nH]2)CC1" .
3300 nM

I would be grateful if you could share the reported IC50 for "COc1ccc(C(=O)C2CCN(C(=O)CCCc3nc4ccc(F)cc4c(=O)[nH]3)CC2)cn1" .
550 nM

I would be grateful if you could share the reported IC50 for "CC(C)(O)c1ccc(C(=O)C2CCN(C(=O)CCCc3nc4ccccc4c(=O)[nH]3)CC2)cc1" .
430 nM

###

- Target: TNKS2 (Homo sapiens)
- Construct: GST-tagged Tnks-2 (873-1166 aa, prepared in-house); made in house
- Test Summary: TNKS2 activity ELISA (autoparsylation assay)
- Assay type: biochemical
- Condition Notes: prior art compounds; read-out: IC50 (TNKS2)
Parameter Measured: IC50 (nM)
Quick note: give the figure in nM, leave out the unit.

Please provide the recorded IC50 for O=c1[nH]c(-c2ccc3c(c2)OCO3)nc2ccccc12 [reference compound] , tested on TNKS2 (Homo sapiens).
600

###

- Target: TNKS2 (Homo sapiens, UniProt Q9H2K2)
- Construct: GST-tagged Tnks-2 (873-1166 aa, prepared in-house); made in house
- Sequence (Q9H2K2 873-1166): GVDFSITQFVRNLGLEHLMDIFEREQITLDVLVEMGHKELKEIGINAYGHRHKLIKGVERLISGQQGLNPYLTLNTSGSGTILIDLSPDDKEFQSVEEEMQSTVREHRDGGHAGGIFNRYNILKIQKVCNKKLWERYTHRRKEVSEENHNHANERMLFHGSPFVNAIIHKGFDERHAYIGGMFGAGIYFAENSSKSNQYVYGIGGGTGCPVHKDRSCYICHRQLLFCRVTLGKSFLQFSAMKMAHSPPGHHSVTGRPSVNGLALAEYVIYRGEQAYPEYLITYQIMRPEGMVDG
- Test Summary: TNKS2 activity ELISA (autoparsylation assay)
- Type: biochemical
- Condition Notes: GST-tagged Tnks-2; read-out: IC50 [M] TNKS2 ELISA
Catalogue of IC50 readings, one per entry.
Quick note: give the figure in M, leave out the unit.

Molecule: N#Cc1ccc(OC2CCN(C(=O)CCCc3nc4ccc(F)cc4c(=O)[nH]3)CC2)cc1 [Compound A22]
Output Unit: M
IC50: 7.6e-08

Molecule: O=C(c1ccccc1)C1CCN(C(=O)CCCc2nc3c(F)cc(F)cc3c(=O)[nH]2)CC1 [Compound A6]
Output Unit: M
IC50: 9.3e-10

Molecule: COc1ccc(C(=O)C2CCN(C(=O)CCCc3nc4ccccc4c(=O)[nH]3)CC2)cc1F [Compound A8]
Output Unit: M
IC50: 1.5e-10

Molecule: Cn1ccnc1C(=O)C1CCN(C(=O)CCCc2nc3ccccc3c(=O)[nH]2)CC1 [Compound A40]
Output Unit: M
IC50: 6.1e-08

Molecule: COc1ccc(C(=O)C2CCN(C(=O)CCCc3nc4ccccc4c(=O)[nH]3)CC2)cn1 [Compound A16]
Output Unit: M
IC50: 7.5e-10

Molecule: O=C(c1ccc(F)cc1)C1CCN(C(=O)CCCc2nc3c(F)cccc3c(=O)[nH]2)CC1 [Compound A28]
Output Unit: M
IC50: 6.2e-10

Molecule: N#Cc1cc(C2CCN(C(=O)CCCc3nc4ccc(F)cc4c(=O)[nH]3)CC2)cnc1N [Compound A31]
Output Unit: M
IC50: 9.5e-10

I would be grateful if you could share the reported IC50 for COc1ccc(C(=O)C2CCN(C(=O)CCCc3nc4ccc(F)cc4c(=O)[nH]3)CC2)cn1 [Compound A21] .
6.8e-10

###

- Target: TNKS2 (Homo sapiens)
- Construct: GST-tagged Tnks-2 (873-1166 aa, prepared in-house); made in house
- Test Summary: TNKS2 activity ELISA (autoparsylation assay)
- Assay type: biochemical
Parameter Measured: pIC50
Lab note — pIC50 values are minus log10 of concentrations in M.

Completed entries (count: 6):
Compound: COc1ccc(C(=O)C2CCN(C(=O)CCCc3nc4ccccc4c(=O)[nH]3)CC2)cc1 [Compound A1]
Parameter Measured: pIC50
Reading: 9.96

Compound: Nc1ncc(C2CCN(C(=O)CCCc3nc4ccccc4c(=O)[nH]3)CC2)cc1-c1ncccn1 [Compound A30]
Parameter Measured: pIC50
Reading: 9.52

Compound: N#Cc1ccc(OC2CCN(C(=O)CCCc3nc4c(F)cccc4c(=O)[nH]3)CC2)cc1 [Compound A27]
Parameter Measured: pIC50
Reading: 7.07

Compound: CCn1cc(-c2ccc(C(=O)C3CCN(C(=O)CCCc4nc5ccccc5c(=O)[nH]4)CC3)cc2)cn1 [Compound A10]
Parameter Measured: pIC50
Reading: 9.80

Compound: Cc1cccc(C(=O)C2CCN(C(=O)CCCc3nc4ccccc4c(=O)[nH]3)CC2)c1 [Compound A7]
Parameter Measured: pIC50
Reading: 9.72

Compound: N#Cc1ccc(OC2CCN(C(=O)CCCc3nc4ccccc4c(=O)[nH]3)CC2)cc1 [Compound A17]
Parameter Measured: pIC50
Reading: 7.10

Please look at the following compound next.
I would be grateful if you could share the reported pIC50 for N#Cc1cc(C2CCN(C(=O)CCCc3nc4ccccc4c(=O)[nH]3)CC2)cnc1N [Compound A36] .
8.96

###

- Target: PARP-1 (Homo sapiens)
- Construct: purchased Enzo Life Sciences GmbH, Lörrach, Germany
- Test Summary: PARP-1 autoparsylation assay (HTRF)
- Format: biochemical
- Condition Notes: His-tagged Parp-1, autoparsylation
Catalogue of IC50 readings, one per entry.
Quick note: give the figure in nM, leave out the unit.

I would be grateful if you could share the reported IC50 for Cc1cc(F)cc2c(=O)[nH]c(CCCC(=O)N3CCC(C(=O)c4ccccc4)CC3)nc12 [Compound A3] .
29

I would be grateful if you could share the reported IC50 for O=C(c1ccccc1)C1CCN(C(=O)CCCc2nc3ccccc3c(=O)[nH]2)CC1 [Compound A2] .
730

I would be grateful if you could share the reported IC50 for N#Cc1ccc(OC2CCN(C(=O)CCCc3nc4ccc(F)cc4c(=O)[nH]3)CC2)cc1 [Compound A22] .
640

I would be grateful if you could share the reported IC50 for CC(C)(O)c1ccc(C(=O)C2CCN(C(=O)CCCc3nc4ccc(F)cc4c(=O)[nH]3)CC2)cc1 [Compound A39] .
270

###

Catalogue of IC50 readings, one per entry.
- Target: TNKS1 (Homo sapiens, UniProt O95271)
- Construct: GST-tagged Tnks-1 (1023-1327 aa, prepared in-house); made in house
- Sequence (O95271 1023-1327): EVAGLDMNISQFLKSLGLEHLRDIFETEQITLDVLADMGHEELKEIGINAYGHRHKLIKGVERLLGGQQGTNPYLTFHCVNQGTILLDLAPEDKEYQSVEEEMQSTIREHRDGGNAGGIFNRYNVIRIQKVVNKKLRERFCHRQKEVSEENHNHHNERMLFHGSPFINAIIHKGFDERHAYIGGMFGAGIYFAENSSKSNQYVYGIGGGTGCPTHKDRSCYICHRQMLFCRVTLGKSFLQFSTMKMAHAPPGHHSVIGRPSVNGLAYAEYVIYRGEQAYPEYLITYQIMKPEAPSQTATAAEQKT
- Test Summary: TNKS1 activity ELISA (autoparsylation assay)
- Format: biochemical
- Condition Notes: GST-tagged Tnks-1; read-out: IC50 [M] TNKS1 ELISA

Completed entries (count: 3):
Compound: Nc1ncc(C2CCN(C(=O)CCCc3nc4c(F)cccc4c(=O)[nH]3)CC2)cc1-c1ncccn1 [Compound A35]
Parameter Measured: IC50
Reading: 4.9e-10 M
//
Compound: COc1ccc(C(=O)C2CCN(C(=O)CCCc3nc4c(C)cc(F)cc4c(=O)[nH]3)CC2)cc1 [Compound A4]
Parameter Measured: IC50
Reading: 6.6e-11 M
//
Compound: CC(C)(O)c1ccc(C(=O)C2CCN(C(=O)CCCc3nc4c(F)cccc4c(=O)[nH]3)CC2)cc1 [Compound A37]
Parameter Measured: IC50
Reading: 1.1e-08 M

Please provide the recorded IC50 for O=C(c1ccc(F)cc1)C1CCN(C(=O)CCCc2nc3ccccc3c(=O)[nH]2)CC1 [Compound A18] , tested on TNKS1 (Homo sapiens, UniProt O95271).
7e-10 M

Please provide the recorded IC50 for CC(C)(O)c1ccc(C(=O)C2CCN(C(=O)CCCc3nc4ccccc4c(=O)[nH]3)CC2)cc1 [Compound A38] , tested on TNKS1 (Homo sapiens, UniProt O95271).
2.2e-08 M

Please provide the recorded IC50 for COc1ccc(C(=O)C2CCN(C(=O)CCCc3nc4ccccc4c(=O)[nH]3)CC2)cn1 [Compound A16] , tested on TNKS1 (Homo sapiens, UniProt O95271).
1.1e-09 M

Please provide the recorded IC50 for COc1ccc(C(=O)C2CCN(C(=O)CCCc3nc4ccccc4c(=O)[nH]3)CC2)cc1C [Compound A13] , tested on TNKS1 (Homo sapiens, UniProt O95271).
1e-10 M

Please provide the recorded IC50 for COc1ccc(C(=O)C2CCN(C(=O)CCCc3nc4ccc(F)cc4c(=O)[nH]3)CC2)cc1F [Compound A20] , tested on TNKS1 (Homo sapiens, UniProt O95271).
2.5e-10 M
